Molecular target: T1, 4A
T1 construct: also called HLA-A2 / point-mutant NY-ESO peptide 4A complex on T2 cells
Assay: flow cytometry on peptide-pulsed T2 cells, scFv 100 nM
measuredQuantity: standardized gMFI

stdin: Reported standardized gMFI, binder NYA-1154 (scFv) scFv: GEVQLVESGGGVVQPGRSLTPSCSASGFSIRSYDMHWVRQAPGKGLEWVATISYDGSQKYFADSVKGRFTIFRDESENMVYLQMSGLRVEDTAVYHCARGSSNHYEAFDIWGQGTMVTVSSGGGGSGGGGSGGGGSQSVLTQPPSVSAAPGQKVTISCSGSSSNIGNNYVSWYQRLPGTAPKLLIYDNNKRPSGIPDRFSGSKSGTSATLGITGLQTGDEADYYCGAWDSSLSAPWVFGGGTKVTVLGAAAGAGGDYKDDDDKGAAAHHHHHH : ____
stdout: 6.63

stdin: For NYA-2048 (scFv, also called NYA-2048 tag adduct) scFv: GQVQLVESGGGVVQPGRSLRLSCAASGFSIRSYDMHWVRQAPGKGLEWVATISYDGSQKYYADSVKGRFTISRDNSKNTLYLQMSSLRAEDTAVYHCARGSSGHYEAFDIWGQGTLVTVSSGGGGSGGGGSGGGGSQSVLTQPPSASGTPGQRVTISCSGSSSNIGNWYVSWYQQLPGTAPKLLIYDNNKRPSGVPDRFSGSKSGTSASLAISGLQSEDEADYYCGTWDSSLSAPWVFGGGTKLTVLGAAAGAGGDYKDDDDKGAAAHHHHHH then?
stdout: 0.63

stdin: For NYA-0001 (scFv, also called NYA-0001 tag adduct; NY-R119 expressed in a cultured mammalian cell) scFv: GEVQLVESGGGVVQPGRSLTPSCSASGFSIRSYDIHWVRQAPGKGLEWVATISYDGSQKYFADSVKGRFTIFRDESENMVYLQMSGLRVEDTAVYHCARGSSGHYEAFDIWGQGTMVTVSSGGGGSGGGGSGGGGSQSVLTQPPSVSAAPGQKVTISCSGSSSNIGNNYVSWYQQLPGTAPKLLIYDNNKRPSGIPDRFSGSKSGTSATLGITGLQTGDEADYYCGTWDSSLSAPWVFGGGTKVTVLGAAAGAGGDYKDDDDKGAAAHHHHHH then?
stdout: 0.83

stdin: For NYA-2143 (scFv) scFv: GEVQLVESGGGVVQPGRSLTPSCSASGFSIRSYDIHWVRLAPGKGLEWVATISYDGSQKYFADSVKGRFTIFRDESENMVYLQMSGLRVEDTAVYHCARGSSGHYEAFDIWGQGTMVTVSSGGGGSGGGGSGGGGSQSVLTQPPSVSAAPGQKVTISCSGSSSNIGNWYVSWYQRLPGTAPKLLIYDNNKRPSGIPDRFSGSKSGTSATLGITGLQTGDEADYYCGTWDSSLSAPWVFGGGTKVTVLGAAAGAGGDYKDDDDKGAAAHHHHHH then?
stdout: 7.19

stdin: For NYA-2060 (scFv, also called NYA-2060 tag adduct) scFv: GEVQLVESGGGLVQPGGSLRLSCAASGFSIRSYDIHWVRQAPGKGLEWVATISYDGSQKYYADSVKGRFTISRDESKNTLYLQMNSLRAEDTAVYHCARGSSGHYEAFDIWGQGTLVTVSSGGGGSGGGGSGGGGSQSVLTQPPSVSAAPGQKVTISCSGSSSNIGNWYVSWYQQLPGTAPKLLIYDNNKRPSGIPDRFSGSKSGTSATLGITGLQTGDEADYYCGTWDSSLSAPWVFGGGTKVTVLGAAAGAGGDYKDDDDKGAAAHHHHHH then?
stdout: 0.73

stdin: For NYA-2047 (scFv) scFv: GQVQLVESGGGVVQPGRSLRLSCAASGFSIRSYDMHWVRQAPGKGLEWVATISYDGSQKYYADSVKGRFTISRDNSKNTLYLQMSSLRAEDTAVYHCARGSSGHYEAFDIWGQGTLVTVSSGGGGSGGGGSGGGGSQSVLTQPPSVSAAPGQKVTISCSGSSSNIGNWYVSWYQQLPGTAPKLLIYDNNKRPSGIPDRFSGSKSGTSATLGITGLQTGDEADYYCGTWDSSLSAPWVFGGGTKVTVLGAAAGAGGDYKDDDDKGAAAHHHHHH then?
stdout: 0.86

stdin: For NYA-2044 (scFv, also called NYA-2044 tag adduct) scFv: GEVQLVESGGGLVQPGGSLRLSCAASGFSIRSYDIHWVRLAPGKGLEWVATISYDGSQKYYADSVKGRFTISRDESKNTLYLQMNSLRAEDTAVYHCARGSSGHYEAFDIWGQGTLVTVSSGGGGSGGGGSGGGGSQSVLTQPPSVSAAPGQKVTISCSGSSSNIGNWYVSWYQQLPGTAPKLLIYDNNKRPSGIPDRFSGSKSGTSATLGITGLQTGDEADYYCGTWDSSLSAPWVFGGGTKVTVLGAAAGAGGDYKDDDDKGAAAHHHHHH then?
stdout: 3.21

stdin: For NYA-1163 (scFv) scFv: GEVQLVESGGGVVQPGRSLTPSCSASGFSIRSYDIHWVRLAPGKGLEWVATISYDGSQKYFADSVKGRFTIFRDESENMVYLQMSGLRVEDTAVYHCARGSSGHYEAFDIWGQGTMVTVSSGGGGSGGGGSGGGGSQSVLTQPPSVSAAPGQKVTISCSGSSSNIGNNYVSWYQQLPGTAPKLLIYDNNKRPSGIPDRFSGSKSGTSATLGITGLQTGDEADYYCGTWDSSLSAPWVFGGGTKVTVLGAAAGAGGDYKDDDDKGAAAHHHHHH then?
stdout: 0.57

stdin: For NYA-2027 (scFv) scFv: GEVQLVESGGGVVQPGRSLTPSCSASGFSIRSYDIHWVRQAPGKGLEWVATISYDGSQKYFADSVKGRFTIFRDESENMVYLQMSGLRVEDTAVYHCARGSSGHYEAFDIWGQGTMVTVSSGGGGSGGGGSGGGGSQSVLTQPPSVSAAPGQKVTISCSGSSSNIGNNYVSWYQQLPGTAPKLLIYDNNKRPSGIPDRFSGSKSGTSATLGITGLQTGDEADYYCGSWDSSLSAPWVFGGGTKVTVLGAAAGAGGDYKDDDDKGAAAHHHHHH then?
stdout: 0.99

stdin: For NYA-2023 (scFv) scFv: GEVQLVESGGGVVQPGRSLTPSCSASGFSIRSYDIHWVRQAPGKGLEWVATISYDGSQKYFADSVKGRFTIFRDESENMVYLQMSGLRVEDTAVYHCARGSSGHYEAFDIWGQGTMVTVSSGGGGSGGGGSGGGGSQSVLTQPPSVSAAPGQKVTISCSGSSSNIGNWYVSWYQQLPGTAPKLLIYDNNKRPSGIPDRFSGSKSGTSATLGITGLQTGDEADYYCGTWDSSLSAPWVFGGGTKVTVLGAAAGAGGDYKDDDDKGAAAHHHHHH then?
stdout: 2.48
